- Tested on: Trichophyton mentagrophytes
- Experiment: anti-fungal growth inhibition, T. mentagrophytes
- Format: cell-based
- Experimental context: Trichophyton mentagrophytes, 168 h; T. mentagraphytes, 25 μM, one week, 30° C., OD 510 nm; read-out: Inhibition rate (25 μM)
Answer each item with its documented inhibition at 25 µM.
Note: unit % is implicit; provide only the numeric part.

INPUT: inhibition at 25 µM for O=C(Oc1ccc(CCc2cc(OC(=O)c3ccccc3)cc(OC(=O)c3ccccc3)c2)cc1)c1ccccc1 ?
OUTPUT: 3.79

INPUT: Next entry: C=CC(=O)Oc1ccc(CCc2cc(OC(=O)C=C)cc(OC(=O)C=C)c2)cc1
OUTPUT: 83.1

INPUT: Next entry: CCOC(=O)COc1ccc(CCc2cc(OCC(=O)OCC)cc(OCC(=O)OCC)c2)cc1
OUTPUT: 4.33

INPUT: Next entry: O=C(Oc1ccc(CCc2cc(OC(=O)c3ccc(Cl)cc3)cc(OC(=O)c3ccc(Cl)cc3)c2)cc1)c1ccc(Cl)cc1
OUTPUT: 3.01
